Each recorded value in this set is attributed to a melting point compilation (Tetko et al.; mined from patent text by program, amines drawn as free bases though some values may be those of a salt).

Task for the reader: assign each of the following compounds its reported melting point.

Reference set (3 entries):
COc1ccc2cc(-c3nc(-c4ccc(C)cc4)no3)c(=O)oc2c1; 227 °C
O=C(NC1CCN(CCCc2ccccc2)CC1)C1=Cc2cnc3cccc(n23)S1; 190 to 191 °C
CCC(=O)NCCC1CCc2ccn3nccc3c21 (centres undefined); 72 to 73 °C

// next entry
For `O=S(=O)(Br)c1ccc(Cl)s1` , what is its reported melting point? 35 to 37 °C

====

Task for the reader: assign each of the following compounds its reported melting point.

CCCCn1cc(C(=O)O)c(=O)c2cc(C)sc21; 172 to 173 °C
CCN(CC)C(=O)c1ccc(I)cc1; 68 to 70 °C
COc1ccc(C(=O)NCCCCCCCNC(=O)c2ccc(OC)c(Cl)c2)cc1Cl; 132 to 133 °C
COc1ccc(-c2cccc(COCCc3cccc(NC(N)=O)c3)c2)cc1; 87 to 89 °C
COc1cccc(C2(CC(=O)N(C)C)C=CCCC2)c1 (stereo not given); 161 to 162 °C
C=CCNc1nc(N)nc(-c2ccccc2)c1-c1ccc(=O)n(C(C)C)n1; 192 °C
CCCCSc1nnc(-c2ccc(N)cc2)s1; 91 °C
CCOC(=O)c1cccc(NC(=O)C(CO)NS(=O)(=O)c2ccc(Cl)cc2)c1 (racemic); 142 to 144 °C

List the reported melting point of each compound below.
1. CC(=O)c1c(O)cccc1OCC(O)COc1ccc(F)cc1 (stereo not given)
2. CCc1c2cccccc-2[nH]c1=O

1: 111 to 113 °C; 2: 166 to 171 °C

====

Task for the reader: assign each of the following compounds its reported melting point.

Reference set (5 entries):
O=c1c2ccc3[nH]ccc3c2ccn1Cc1ccc(F)cc1; 171 to 173 °C
O=C(Oc1ccc2cc3cc(OC(=O)c4ccc(O)cc4)ccc3cc2c1)c1ccc(O)cc1; 324 °C
CCCCCC(C)(c1ccc(O)c(C)c1)c1ccc(O)c(C)c1; 99 to 101 °C
CC1CCCN(C[C@@H]2COc3ccc(S(C)(=O)=O)cc3O2)C1 (stereo partly specified); 159 °C
CCC(CC)c1ccc(Cl)c2nc3n(c12)CCCCN3c1ccc(Cl)cc1; 133 to 135 °C

For COC1C(CO)OC(n2cnc3c(N)ncnc32)C1(C)O (stereo unspecified) , what is its reported melting point? 180 °C

====

REPORTED PROPERTY: melting point

Reference set (6 entries):
COC(=O)c1cccn1CC(I)=C(I)I; 88 to 90 °C
Cc1cccc(NC(=O)OC(C)(C)C)c1COc1cccn2c(C)c(C)nc12; 128 to 131 °C
CC(=O)NC1CCC(=O)c2sccc21 (centres undefined); 160 to 164 °C
CC12CCC3C(CC=C4C=C(N5CCCC5)CCC43C)C1CCC2=O (centres undefined); 217 to 220 °C
Cn1c(COc2ccc(CC3SC(=O)N(C(c4ccccc4)(c4ccccc4)c4ccccc4)C3=O)cc2)nc2cc(Cl)cnc21 (centres undefined); 82 to 84 °C
CCN(CC)CCOc1ccc2cc3ccc(OCCN(CC)CC)c([N+](=O)[O-])c3nc2c1[N+](=O)[O-]; 138 to 140 °C

List the reported melting point of each molecule below.
1. O=C1NC(C(=O)O)CCCCCCCCCCC1CS (centres undefined)
2. NS(=O)(=O)c1cc2cc(CO)ccc2s1
3. OC1CSC(Oc2cc(-c3ccnc(F)c3)cc(F)c2F)C(O)C1O (centres undefined)
4. N#Cc1ccc2ccccc2c1O
5. CCOC(=O)c1cc(-c2ccc(Cl)cc2)n(O)c1C(=O)OCC
6. Cc1c(O)cccc1OCc1ccccc1

["170 to 172 °C", "174 to 176 °C", "184 °C", "182 to 183 °C", "82 to 84 °C", "58 to 59 °C"]

List the reported melting point of each molecule below.
1. O=[N+]([O-])c1ccc(-c2nn(-c3ccccc3)cc2CO)o1
2. O=C(O)CCC(=NO)c1ccc(-c2ccccc2F)cc1
3. O=C(NO)c1ccc(CNC(=O)c2[nH]c(-c3ccoc3)cc2-c2ccc(F)cc2)cc1
4. O=c1cnc(-c2ccccc2)nn1CC(F)(F)F
5. CCCCC1N=CC(C=O)(Cc2ccc(C(=O)OC)c3ccccc23)N1 (centres undefined)
6. COC(=O)C(C)(C)Cc1c(C(=O)C2CC2)c2cc(OCc3ccc4ccccc4n3)c(C(=O)C3CC3)cc2n1Cc1ccc(Cl)cc1
7. CC(C)(C)NSc1cnccn1

["148 to 149 °C", "150 to 152 °C", "162 to 164 °C", "129 to 131 °C", "95.5 to 97 °C", "166 to 167 °C", "44 to 52 °C"]
